For each of the compounds below, state its Maximal inhibition of MPRO (%).
- TARGET_UNDER_TEST: SARS-CoV-2 main protease (MPRO or 3CL) (Severe acute respiratory syndrome coronavirus 2, UniProt P0DTD1)
- ASSAY_METHOD_TEXT: SensoLyte 520 SARS-CoV-2 MPRO activity assay
- Format: biochemical
- PARTICULARS: maximal observed within tested dose range (2.5-10 µM; pyridoxine 5-20 µM)
Provide only the numeric value, understood in %.

Task item: So what does the record say about Maximal inhibition of MPRO (%) for Cc1ncc(CO)c(CO)c1O [Pyridoxine] ?
Reply: 45.17

Task item: If you can, please state the reported Maximal inhibition of MPRO (%) value of Nc1nc2ncc(CNc3ccc(C(=O)N[C@@H](CCC(=O)O)C(=O)O)cc3)nc2c(=O)[nH]1 [Folic Acid] .
Reply: 26.8

Task item: What does the data say about its Maximal inhibition of MPRO (%)? Entry: CC[C@H]1OC(=O)[C@H](C)[C@@H](O[C@H]2C[C@@](C)(OC)[C@@H](O)[C@H](C)O2)[C@H](C)[C@@H](O[C@@H]2O[C@H](C)C[C@H](N(C)C)[C@H]2O)[C@](C)(O)C[C@@H](C)C(=O)[C@H](C)[C@@H](O)[C@]1(C)O [Erythromycin]
Reply: 30.51

Task item: Recorded Maximal inhibition of MPRO (%) of C=C[C@]1(C)C[C@@H](OC(=O)CS[C@@H]2C[C@H]3CC[C@@H](C2)N3C)[C@]2(C)[C@H](C)CC[C@]3(CCC(=O)[C@H]32)[C@@H](C)[C@@H]1O [Retapamulin] , please.
Reply: 33.37

----------
- TARGET_UNDER_TEST: SARS-CoV-2 papain-like protease (Severe acute respiratory syndrome coronavirus 2, UniProt P0DTD1)
- ASSAY_METHOD_TEXT: SensoLyte 520 SARS-CoV-2 papain-like protease activity assay
- Type: biochemical
- PARTICULARS: maximal observed within tested dose range (2.5-10 µM; pyridoxine 5-20 µM)
I'd be grateful if you could share measured Maximal inhibition of PP (%) for these entries.
Answer with a number only, understood to be in %.

Task item: Entry `Nc1nc2ncc(CNc3ccc(C(=O)N[C@@H](CCC(=O)O)C(=O)O)cc3)nc2c(=O)[nH]1` : reported Maximal inhibition of PP (%) = ?
Reply: 31.99

Task item: What Maximal inhibition of PP (%) value was documented for this molecule, `C=C[C@]1(C)C[C@@H](OC(=O)CS[C@@H]2C[C@H]3CC[C@@H](C2)N3C)[C@]2(C)[C@H](C)CC[C@]3(CCC(=O)[C@H]32)[C@@H](C)[C@@H]1O` ?
Reply: 20.60

Task item: Could you tell me which Maximal inhibition of PP (%) is on file for `CC[C@H]1OC(=O)[C@H](C)[C@@H](O[C@H]2C[C@@](C)(OC)[C@@H](O)[C@H](C)O2)[C@H](C)[C@@H](O[C@@H]2O[C@H](C)C[C@H](N(C)C)[C@H]2O)[C@](C)(O)C[C@@H](C)C(=O)[C@H](C)[C@@H](O)[C@]1(C)O` ?
Reply: 29.46

Task item: Tell me the measured Maximal inhibition of PP (%) of `Cc1ncc(CO)c(CO)c1O` , please.
Reply: 17.46

----------
- TARGET_UNDER_TEST: SARS-CoV-2 main protease (MPRO or 3CL) (Severe acute respiratory syndrome coronavirus 2, UniProt P0DTD1)
- ASSAY_METHOD_TEXT: SensoLyte 520 SARS-CoV-2 MPRO activity assay
- Type: biochemical
- PARTICULARS: within tested dose range
Would you mind telling me the reported Dose at maximal observed inhibition of MPRO of each entry?
Just the number please, in µM, no unit attached.

Task item: I'd like to know its Dose at maximal observed inhibition of MPRO. The molecule in question is C=C[C@]1(C)C[C@@H](OC(=O)CS[C@@H]2C[C@H]3CC[C@@H](C2)N3C)[C@]2(C)[C@H](C)CC[C@]3(CCC(=O)[C@H]32)[C@@H](C)[C@@H]1O [Retapamulin]
Reply: 2.5

Task item: Recorded Dose at maximal observed inhibition of MPRO for CC[C@H]1OC(=O)[C@H](C)[C@@H](O[C@H]2C[C@@](C)(OC)[C@@H](O)[C@H](C)O2)[C@H](C)[C@@H](O[C@@H]2O[C@H](C)C[C@H](N(C)C)[C@H]2O)[C@](C)(O)C[C@@H](C)C(=O)[C@H](C)[C@@H](O)[C@]1(C)O [Erythromycin] , please?
Reply: 2.5

Task item: # query: Dose at maximal observed inhibition of MPRO of entry Cc1ncc(CO)c(CO)c1O [Pyridoxine]
Reply: 20.0

Task item: Data request, read-out Dose at maximal observed inhibition of MPRO, for Nc1nc2ncc(CNc3ccc(C(=O)N[C@@H](CCC(=O)O)C(=O)O)cc3)nc2c(=O)[nH]1 [Folic Acid]
Reply: 2.5

Data provenance: paper PMC10711598
